- conditionDescription: in water, 323.15 K
reportedMetric: solubility (mole fraction)
One number for each entry.

Can you look up the measured solubility (mole fraction) of Nc1cc(-c2ccncc2)c[nH]c1=O for me? 2.63e-06

* * *

- conditionDescription: in ethanol, 293.15 K
reportedMetric: solubility (mole fraction)
Answers are plain numbers.

Can you look up the measured solubility (mole fraction) of Nc1cc(-c2ccncc2)c[nH]c1=O for me? 4.41e-05

* * *

- conditionDescription: in ethylene glycol, 323.15 K
reportedMetric: solubility (mole fraction)
Give bare numbers.

Can you look up the measured solubility (mole fraction) of Nc1cc(-c2ccncc2)c[nH]c1=O for me? 7.18e-05

* * *

- conditionDescription: in ethanol, 323.15 K
reportedMetric: solubility (mole fraction)
Numbers only.

Can you look up the measured solubility (mole fraction) of Nc1cc(-c2ccncc2)c[nH]c1=O for me? 9.67e-05

* * *

- conditionDescription: in methanol, 293.15 K
reportedMetric: solubility (mole fraction)
Give bare numbers.

Can you look up the measured solubility (mole fraction) of Nc1cc(-c2ccncc2)c[nH]c1=O for me? 8.44e-05

* * *

- conditionDescription: in ethanol, 298.15 K
reportedMetric: solubility (mole fraction)

Can you look up the measured solubility (mole fraction) of Nc1cc(-c2ccncc2)c[nH]c1=O for me? 5.07e-05

* * *

- conditionDescription: in methanol, 308.15 K
reportedMetric: solubility (mole fraction)

Can you look up the measured solubility (mole fraction) of Nc1cc(-c2ccncc2)c[nH]c1=O for me? 0.000126

* * *

- conditionDescription: in methanol, 313.15 K
reportedMetric: solubility (mole fraction)
Numbers only.

Can you look up the measured solubility (mole fraction) of Nc1cc(-c2ccncc2)c[nH]c1=O for me? 0.000141

* * *

- conditionDescription: in ethanol, 283.15 K
reportedMetric: solubility (mole fraction)
One number for each entry.

Can you look up the measured solubility (mole fraction) of Nc1cc(-c2ccncc2)c[nH]c1=O for me? 3.18e-05

* * *

- conditionDescription: in ethylene glycol, 293.15 K
reportedMetric: solubility (mole fraction)
Answers are plain numbers.

Can you look up the measured solubility (mole fraction) of Nc1cc(-c2ccncc2)c[nH]c1=O for me? 3.26e-05

* * *

- conditionDescription: in DMF, 288.15 K
reportedMetric: solubility (mole fraction)

Can you look up the measured solubility (mole fraction) of Nc1cc(-c2ccncc2)c[nH]c1=O for me? 0.000102

* * *

- conditionDescription: in methanol, 283.15 K
reportedMetric: solubility (mole fraction)
Answers are plain numbers.

Can you look up the measured solubility (mole fraction) of Nc1cc(-c2ccncc2)c[nH]c1=O for me? 6.11e-05

* * *

- conditionDescription: in water, 298.15 K
reportedMetric: solubility (mole fraction)
Answers are plain numbers.

Can you look up the measured solubility (mole fraction) of Nc1cc(-c2ccncc2)c[nH]c1=O for me? 1.33e-06

* * *

- conditionDescription: in water, 288.15 K
reportedMetric: solubility (mole fraction)
Numbers only.

Can you look up the measured solubility (mole fraction) of Nc1cc(-c2ccncc2)c[nH]c1=O for me? 9.66e-07

* * *

- conditionDescription: in water, 303.15 K
reportedMetric: solubility (mole fraction)
Give bare numbers.

Can you look up the measured solubility (mole fraction) of Nc1cc(-c2ccncc2)c[nH]c1=O for me? 1.53e-06

* * *

- conditionDescription: in methanol, 323.15 K
reportedMetric: solubility (mole fraction)
Answers are plain numbers.

Can you look up the measured solubility (mole fraction) of Nc1cc(-c2ccncc2)c[nH]c1=O for me? 0.00018

* * *

- conditionDescription: in DMF, 308.15 K
reportedMetric: solubility (mole fraction)

Can you look up the measured solubility (mole fraction) of Nc1cc(-c2ccncc2)c[nH]c1=O for me? 0.000177

* * *

- conditionDescription: in ethylene glycol, 303.15 K
reportedMetric: solubility (mole fraction)
Answers are plain numbers.

Can you look up the measured solubility (mole fraction) of Nc1cc(-c2ccncc2)c[nH]c1=O for me? 4.35e-05

* * *

- conditionDescription: in ethylene glycol, 298.15 K
reportedMetric: solubility (mole fraction)
One number for each entry.

Can you look up the measured solubility (mole fraction) of Nc1cc(-c2ccncc2)c[nH]c1=O for me? 3.83e-05

* * *

- conditionDescription: in water, 308.15 K
reportedMetric: solubility (mole fraction)
Answers are plain numbers.

Can you look up the measured solubility (mole fraction) of Nc1cc(-c2ccncc2)c[nH]c1=O for me? 1.77e-06

* * *

- conditionDescription: in ethylene glycol, 288.15 K
reportedMetric: solubility (mole fraction)
One number for each entry.

Can you look up the measured solubility (mole fraction) of Nc1cc(-c2ccncc2)c[nH]c1=O for me? 2.74e-05

* * *

- conditionDescription: in DMF, 283.15 K
reportedMetric: solubility (mole fraction)
One number for each entry.

Can you look up the measured solubility (mole fraction) of Nc1cc(-c2ccncc2)c[nH]c1=O for me? 8.63e-05

* * *

- conditionDescription: in DMF, 323.15 K
reportedMetric: solubility (mole fraction)

Can you look up the measured solubility (mole fraction) of Nc1cc(-c2ccncc2)c[nH]c1=O for me? 0.00026

* * *

- conditionDescription: in ethylene glycol, 318.15 K
reportedMetric: solubility (mole fraction)
Numbers only.

Can you look up the measured solubility (mole fraction) of Nc1cc(-c2ccncc2)c[nH]c1=O for me? 6.36e-05

* * *

- conditionDescription: in methanol, 288.15 K
reportedMetric: solubility (mole fraction)

Can you look up the measured solubility (mole fraction) of Nc1cc(-c2ccncc2)c[nH]c1=O for me? 7.22e-05

* * *

- conditionDescription: in water, 293.15 K
reportedMetric: solubility (mole fraction)
Answers are plain numbers.

Can you look up the measured solubility (mole fraction) of Nc1cc(-c2ccncc2)c[nH]c1=O for me? 1.13e-06

* * *

- conditionDescription: in DMF, 313.15 K
reportedMetric: solubility (mole fraction)
Numbers only.

Can you look up the measured solubility (mole fraction) of Nc1cc(-c2ccncc2)c[nH]c1=O for me? 0.000203

* * *

- conditionDescription: in DMF, 303.15 K
reportedMetric: solubility (mole fraction)

Can you look up the measured solubility (mole fraction) of Nc1cc(-c2ccncc2)c[nH]c1=O for me? 0.000154

* * *

- conditionDescription: in water, 283.15 K
reportedMetric: solubility (mole fraction)

Can you look up the measured solubility (mole fraction) of Nc1cc(-c2ccncc2)c[nH]c1=O for me? 8.07e-07

* * *

- conditionDescription: in DMF, 293.15 K
reportedMetric: solubility (mole fraction)
Give bare numbers.

Can you look up the measured solubility (mole fraction) of Nc1cc(-c2ccncc2)c[nH]c1=O for me? 0.000118
